Details: in n-butanol, 328.15 K
recorded_endpoint: solubility (mole fraction)

Look up and report measured solubility (mole fraction) for this entry: "O=C1C[C@@H](c2ccc(O)cc2)Oc2cc(O)cc(O)c21" 0.0042

Look up and report measured solubility (mole fraction) for this entry: "C[C@@H]1O[C@@H](O[C@H]2[C@H](Oc3cc(O)c4c(c3)O[C@H](c3ccc(O)cc3)CC4=O)O[C@H](CO)[C@@H](O)[C@@H]2O)[C@H](O)[C@H](O)[C@H]1O" 0.000391

###

Conditions: in methanol, 288.15 K
recorded_endpoint: solubility (mole fraction)
Quick one: just the number, no unit, thanks!

Look up and report measured solubility (mole fraction) for this entry: "O=C1C[C@@H](c2ccc(O)cc2)Oc2cc(O)cc(O)c21" 0.00875

***
Look up and report measured solubility (mole fraction) for this entry: "C[C@@H]1O[C@@H](O[C@H]2[C@H](Oc3cc(O)c4c(c3)O[C@H](c3ccc(O)cc3)CC4=O)O[C@H](CO)[C@@H](O)[C@@H]2O)[C@H](O)[C@H](O)[C@H]1O" 0.00158

###

Listed next: entries and their corresponding solubility (mole fraction).
Conditions: in ethyl acetate, 308.15 K
Quick one: just the number, no unit, thanks!

Look up and report measured solubility (mole fraction) for this entry: "O=C1C[C@@H](c2ccc(O)cc2)Oc2cc(O)cc(O)c21" 0.0191

Consider the record given below.
Look up and report measured solubility (mole fraction) for this entry: "C[C@@H]1O[C@@H](O[C@H]2[C@H](Oc3cc(O)c4c(c3)O[C@H](c3ccc(O)cc3)CC4=O)O[C@H](CO)[C@@H](O)[C@@H]2O)[C@H](O)[C@H](O)[C@H]1O" 0.000404

###

Details: in n-hexane, 323.15 K
recorded_endpoint: solubility (mole fraction)
Quick one: just the number, no unit, thanks!

Look up and report measured solubility (mole fraction) for this entry: "O=C1C[C@@H](c2ccc(O)cc2)Oc2cc(O)cc(O)c21" 8.69e-06

Consider the record given below.
Look up and report measured solubility (mole fraction) for this entry: "C[C@@H]1O[C@@H](O[C@H]2[C@H](Oc3cc(O)c4c(c3)O[C@H](c3ccc(O)cc3)CC4=O)O[C@H](CO)[C@@H](O)[C@@H]2O)[C@H](O)[C@H](O)[C@H]1O" 4.04e-07

###

Listed next: entries and their corresponding solubility (mole fraction).
Settings: in n-butanol, 293.15 K
Quick one: just the number, no unit, thanks!

Look up and report measured solubility (mole fraction) for this entry: "C[C@@H]1O[C@@H](O[C@H]2[C@H](Oc3cc(O)c4c(c3)O[C@H](c3ccc(O)cc3)CC4=O)O[C@H](CO)[C@@H](O)[C@@H]2O)[C@H](O)[C@H](O)[C@H]1O" 6.34e-05

Consider the record given below.
Look up and report measured solubility (mole fraction) for this entry: "O=C1C[C@@H](c2ccc(O)cc2)Oc2cc(O)cc(O)c21" 0.00137

###

Listed next: entries and their corresponding solubility (mole fraction).
Conditions: in n-hexane, 298.15 K
Quick one: just the number, no unit, thanks!

Look up and report measured solubility (mole fraction) for this entry: "O=C1C[C@@H](c2ccc(O)cc2)Oc2cc(O)cc(O)c21" 4.71e-06

Consider the record given below.
Look up and report measured solubility (mole fraction) for this entry: "C[C@@H]1O[C@@H](O[C@H]2[C@H](Oc3cc(O)c4c(c3)O[C@H](c3ccc(O)cc3)CC4=O)O[C@H](CO)[C@@H](O)[C@@H]2O)[C@H](O)[C@H](O)[C@H]1O" 1.75e-07

###

Conditions: in methanol, 318.15 K
recorded_endpoint: solubility (mole fraction)

Look up and report measured solubility (mole fraction) for this entry: "C[C@@H]1O[C@@H](O[C@H]2[C@H](Oc3cc(O)c4c(c3)O[C@H](c3ccc(O)cc3)CC4=O)O[C@H](CO)[C@@H](O)[C@@H]2O)[C@H](O)[C@H](O)[C@H]1O" 0.00322

Consider the record given below.
Look up and report measured solubility (mole fraction) for this entry: "O=C1C[C@@H](c2ccc(O)cc2)Oc2cc(O)cc(O)c21" 0.0173

###

Conditions: in ethyl acetate, 288.15 K
Listed next: entries and their corresponding solubility (mole fraction).
Quick one: just the number, no unit, thanks!

Look up and report measured solubility (mole fraction) for this entry: "O=C1C[C@@H](c2ccc(O)cc2)Oc2cc(O)cc(O)c21" 0.00998

Consider the record given below.
Look up and report measured solubility (mole fraction) for this entry: "C[C@@H]1O[C@@H](O[C@H]2[C@H](Oc3cc(O)c4c(c3)O[C@H](c3ccc(O)cc3)CC4=O)O[C@H](CO)[C@@H](O)[C@@H]2O)[C@H](O)[C@H](O)[C@H]1O" 0.000184

###

Details: in n-hexane, 328.15 K
recorded_endpoint: solubility (mole fraction)
Quick one: just the number, no unit, thanks!

Look up and report measured solubility (mole fraction) for this entry: "C[C@@H]1O[C@@H](O[C@H]2[C@H](Oc3cc(O)c4c(c3)O[C@H](c3ccc(O)cc3)CC4=O)O[C@H](CO)[C@@H](O)[C@@H]2O)[C@H](O)[C@H](O)[C@H]1O" 4.55e-07

Consider the record given below.
Look up and report measured solubility (mole fraction) for this entry: "O=C1C[C@@H](c2ccc(O)cc2)Oc2cc(O)cc(O)c21" 9.09e-06

###

Conditions: in isopropanol, 298.15 K
Listed next: entries and their corresponding solubility (mole fraction).
Quick one: just the number, no unit, thanks!

Look up and report measured solubility (mole fraction) for this entry: "O=C1C[C@@H](c2ccc(O)cc2)Oc2cc(O)cc(O)c21" 0.0141

Consider the record given below.
Look up and report measured solubility (mole fraction) for this entry: "C[C@@H]1O[C@@H](O[C@H]2[C@H](Oc3cc(O)c4c(c3)O[C@H](c3ccc(O)cc3)CC4=O)O[C@H](CO)[C@@H](O)[C@@H]2O)[C@H](O)[C@H](O)[C@H]1O" 2.1e-05

###

Listed next: entries and their corresponding solubility (mole fraction).
Settings: in methanol, 298.15 K
Quick one: just the number, no unit, thanks!

Look up and report measured solubility (mole fraction) for this entry: "O=C1C[C@@H](c2ccc(O)cc2)Oc2cc(O)cc(O)c21" 0.00991

***
Look up and report measured solubility (mole fraction) for this entry: "C[C@@H]1O[C@@H](O[C@H]2[C@H](Oc3cc(O)c4c(c3)O[C@H](c3ccc(O)cc3)CC4=O)O[C@H](CO)[C@@H](O)[C@@H]2O)[C@H](O)[C@H](O)[C@H]1O" 0.00197

###

Details: in ethyl acetate, 323.15 K
recorded_endpoint: solubility (mole fraction)
Quick one: just the number, no unit, thanks!

Look up and report measured solubility (mole fraction) for this entry: "C[C@@H]1O[C@@H](O[C@H]2[C@H](Oc3cc(O)c4c(c3)O[C@H](c3ccc(O)cc3)CC4=O)O[C@H](CO)[C@@H](O)[C@@H]2O)[C@H](O)[C@H](O)[C@H]1O" 0.000594

Consider the record given below.
Look up and report measured solubility (mole fraction) for this entry: "O=C1C[C@@H](c2ccc(O)cc2)Oc2cc(O)cc(O)c21" 0.027

###

Conditions: in isopropanol, 318.15 K
Listed next: entries and their corresponding solubility (mole fraction).
Quick one: just the number, no unit, thanks!

Look up and report measured solubility (mole fraction) for this entry: "C[C@@H]1O[C@@H](O[C@H]2[C@H](Oc3cc(O)c4c(c3)O[C@H](c3ccc(O)cc3)CC4=O)O[C@H](CO)[C@@H](O)[C@@H]2O)[C@H](O)[C@H](O)[C@H]1O" 3.75e-05

***
Look up and report measured solubility (mole fraction) for this entry: "O=C1C[C@@H](c2ccc(O)cc2)Oc2cc(O)cc(O)c21" 0.0218

###

Details: in n-hexane, 303.15 K
recorded_endpoint: solubility (mole fraction)
Quick one: just the number, no unit, thanks!

Look up and report measured solubility (mole fraction) for this entry: "C[C@@H]1O[C@@H](O[C@H]2[C@H](Oc3cc(O)c4c(c3)O[C@H](c3ccc(O)cc3)CC4=O)O[C@H](CO)[C@@H](O)[C@@H]2O)[C@H](O)[C@H](O)[C@H]1O" 2.21e-07

Consider the record given below.
Look up and report measured solubility (mole fraction) for this entry: "O=C1C[C@@H](c2ccc(O)cc2)Oc2cc(O)cc(O)c21" 5.42e-06

###

Conditions: in isopropanol, 288.15 K
recorded_endpoint: solubility (mole fraction)
Quick one: just the number, no unit, thanks!

Look up and report measured solubility (mole fraction) for this entry: "O=C1C[C@@H](c2ccc(O)cc2)Oc2cc(O)cc(O)c21" 0.0101

Consider the record given below.
Look up and report measured solubility (mole fraction) for this entry: "C[C@@H]1O[C@@H](O[C@H]2[C@H](Oc3cc(O)c4c(c3)O[C@H](c3ccc(O)cc3)CC4=O)O[C@H](CO)[C@@H](O)[C@@H]2O)[C@H](O)[C@H](O)[C@H]1O" 1.26e-05
